# maps each entry to its Jurkat Cell Binding (FOI)
- subject of test: T1, human CD3 expressed on cells (human, UniProt P07766 23-207; P04234 22-171; P09693 23-182)
- T1 construct: whole, on cells; CD3 complex on Jurkat cells and on human primary T cells
- method description: flow cytometry, 25 nM

>  <binder>
mAb 116 (antibody, V domains shown) VH: EVQLVESGGGLVKTGGSLRLSCVASGFSFKKAWMNWVRQAPGKGLEWVGRIKRNSDGGTTDYAAPVKGRFTLSRDDSKNTLYLQMNSLKTEDTAVYYCTTLDSSSWYVGYYYMDVWGKGTTVTVSS VL: DIQMTQSPFSVSASVGDRVTITCRASQDINNWLAWYQQKPGKAPKILIYTASSLQSGVPSRFSGSGSGTDFTLTISSLQPEDFATYYCQQAHSLPITFGQGTRLEIK

>  <Jurkat Cell Binding (FOI)>
159

$$$$
>  <binder>
mAb 49 (antibody, V domains shown) VH: EVQLVESGGGLVPPGGSLRLSCVASGFTLRSYTMNWVRQAPGQGLEWISYISSTSRTIYYSDSVKGRFTISRDNAKNSLYLQVNSLRDEDTALYYCAREDYYDSSGFDCWGQGTLVTVSS VL: AIRMTQSPSSFSASTGDRVTITCRASQGIFNYLAWYQQKPGKAPKLLIYSTSTLQSGVPSRFSGSGSGTDFTLTIRGLQSEDLATYYCQQYYSFPRTFGQGTKVDIK

>  <Jurkat Cell Binding (FOI)>
178

$$$$
>  <binder>
mAb 159 (antibody, V domains shown) VH: EVQLVESGGGLVQPGRSLRLSCAASGFTFNGYTMHWVRQVPGKGLEWVSGISWNSGSVGYADSVKGRFTISRDNAKNSLFLQMNSLRAEDTALYYCAKDSSGYGHYYYYYMDVWGKGTTVTVSS VL: EIVMTQSPATLSVSPGERATLSCRASQSVRNNLAWYQQKPGQAPRLLIYGASTRATGIPARFSGSGSGTEFTLTISSLQSEDFALYYCQLYNNWPHFGQGTRLEIK

>  <Jurkat Cell Binding (FOI)>
125

$$$$
>  <binder>
mAb 156 (antibody, V domains shown) VH: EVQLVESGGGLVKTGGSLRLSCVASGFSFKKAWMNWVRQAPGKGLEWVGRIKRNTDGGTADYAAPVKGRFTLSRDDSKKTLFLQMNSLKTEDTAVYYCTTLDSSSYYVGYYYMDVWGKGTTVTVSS VL: DIQMTQSPSSVSASVGDRVIITCRASQDINNWLAWYQQKAGKAPKLLIYTASSLQSGVPSRFSGSGSGTDFTLTIGSLQPEDFATYYCQQAHSLPITFGQGTRLEIK

>  <Jurkat Cell Binding (FOI)>
171

$$$$
